Molecular target: PARP (Mus musculus)
Construct: PARP Activity in Cultured Macrophages, Using a Whole-Cell Based Assay; endogenous in cells
Sequence (P11103 whole entry): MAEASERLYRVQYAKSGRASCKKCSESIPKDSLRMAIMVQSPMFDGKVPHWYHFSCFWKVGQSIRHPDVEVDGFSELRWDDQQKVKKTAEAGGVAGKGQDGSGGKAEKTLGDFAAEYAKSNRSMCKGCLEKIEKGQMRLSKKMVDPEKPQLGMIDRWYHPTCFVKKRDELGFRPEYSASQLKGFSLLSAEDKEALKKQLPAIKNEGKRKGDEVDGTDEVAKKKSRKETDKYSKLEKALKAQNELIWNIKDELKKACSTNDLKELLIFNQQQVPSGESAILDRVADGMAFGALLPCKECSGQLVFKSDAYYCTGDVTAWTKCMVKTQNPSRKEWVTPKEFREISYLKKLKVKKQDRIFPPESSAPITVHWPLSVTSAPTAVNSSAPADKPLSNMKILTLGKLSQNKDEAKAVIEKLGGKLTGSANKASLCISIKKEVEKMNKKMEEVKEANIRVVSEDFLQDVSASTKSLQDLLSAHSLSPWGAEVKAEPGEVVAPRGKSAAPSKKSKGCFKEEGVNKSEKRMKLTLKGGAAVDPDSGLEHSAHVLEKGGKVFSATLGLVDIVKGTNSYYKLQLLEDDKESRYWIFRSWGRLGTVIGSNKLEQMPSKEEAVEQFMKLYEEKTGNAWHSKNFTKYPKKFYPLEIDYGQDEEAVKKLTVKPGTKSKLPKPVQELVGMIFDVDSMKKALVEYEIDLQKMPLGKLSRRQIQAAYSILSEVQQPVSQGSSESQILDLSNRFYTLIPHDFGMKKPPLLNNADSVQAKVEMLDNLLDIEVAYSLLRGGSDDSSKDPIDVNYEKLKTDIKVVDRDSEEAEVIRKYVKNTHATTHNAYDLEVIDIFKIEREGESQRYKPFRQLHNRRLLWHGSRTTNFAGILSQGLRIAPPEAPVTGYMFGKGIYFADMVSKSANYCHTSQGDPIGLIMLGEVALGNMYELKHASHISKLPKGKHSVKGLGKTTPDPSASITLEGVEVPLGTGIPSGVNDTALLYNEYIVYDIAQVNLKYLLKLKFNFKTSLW
Experiment: PARP activity in cultured macrophages, whole-cell based assay (3H-NAD+ incorporation after hydrogen peroxide)
Conditions: murine RAW macrophages, 1 hour pretreatment, hydrogen peroxide 0.5 mM
quantity_measured: EC50 (nM)

[I] O=c1[nH]c2c(c3c1CCCC3)Cc1c(CN3CCSC3)cccc1-2 [Example 13]
[II] O=c1[nH]c2c(c3c1CCCC3)Cc1c(CN3CCCCCC3)cccc1-2 [Example 5]
Which of the two gives a bigger number for EC50: I or II ? Give the label of your selection. I
(I: 169 nM, II: 7.8 nM)

These entries and their values trace back to patent US20100261706A1.
